Measured melting point of individual entries
ATTRIBUTE_MEASURED: melting point

[[record]]
compound = "CC(C)(C)OC(=O)N1CCN(c2ccc(NC(=O)Nc3ccccc3Cl)cc2)CC1 [Example 15]"
recorded_measurement = "196 to 197 °C"

[[record]]
compound = "Cc1ccc(Cl)c(NC(=O)Nc2ccc(N3CCN(C(=O)OC(C)(C)C)CC3)cc2)c1 [Example 29]"
recorded_measurement = "222 to 224 °C"

[[record]]
compound = "O=C(Nc1ccc(N2CCN(C(=O)Nc3ccc(OCCO)cc3C(F)(F)F)CC2)cc1)Nc1cccc2c1OCCO2 [Example 244]"
recorded_measurement = "127 to 129 °C"

[[record]]
compound = "Cc1ccccc1NC(=O)Nc1ccc(N2CCN(C(=O)OC(C)(C)C)CC2)cc1 [Example 16]"
recorded_measurement = "188 to 191 °C"

[[record]]
compound = "COc1ccc(F)cc1NC(=O)Nc1ccc(N2CCN(C(=O)Nc3ccc(C)cc3Cl)CC2)cc1 [Example 123]"
recorded_measurement = "233 to 235 °C"

[[record]]
compound = "CCOc1ccccc1NC(=O)Nc1ccc(N2CCN(C(=O)Nc3c(C)cccc3Cl)CC2)cc1 [Example 82]"
recorded_measurement = "215 to 217 °C"

[[record]]
compound = "COc1ccc(C)cc1NC(=O)Nc1ccc(N2CCN(C(=O)Nc3c(F)cccc3F)CC2)nc1 [Example 152]"
recorded_measurement = "237 to 239 °C"

[[record]]
compound = "CCOc1ccccc1NC(=O)Nc1ccc(N2CCN(C(=O)Nc3c(C)cccc3C)CC2)nc1 [Example 142]"
recorded_measurement = "188 to 190 °C"


====

Listing: melting point of selected compounds
ATTRIBUTE_MEASURED: melting point

[[record]]
test_smiles = "CCOc1ccccc1NC(=O)Nc1ccc(N2CCN(C(=O)Nc3c(C)cccc3OC)CC2)cc1"
attribute_measured = "melting point"
recorded_measurement = "169 to 171 °C"

[[record]]
test_smiles = "COc1ccccc1NC(=O)Nc1ccc(N2CCN(C(=O)Nc3c(C)cccc3Cl)CC2)cc1"
attribute_measured = "melting point"
recorded_measurement = "245 to 247 °C"

[[record]]
test_smiles = "Cc1ccc(Cl)cc1NC(=O)Nc1ccc(N2CCN(C(=O)OC(C)(C)C)CC2)cc1"
attribute_measured = "melting point"
recorded_measurement = "200 °C"

[[record]]
test_smiles = "COc1ccc(C)cc1NC(=O)Nc1ccc(C2CCN(C(=O)Nc3ccc(OCCO)cc3Cl)CC2)cc1"
attribute_measured = "melting point"
recorded_measurement = "134 to 137 °C"

[[record]]
test_smiles = "O=C(Nc1ccc(C2=CCN(C(=O)Nc3ccc(OCCO)cc3C(F)(F)F)CC2)cc1)Nc1ccccc1F"
attribute_measured = "melting point"
recorded_measurement = "110 to 112 °C"

[[record]]
test_smiles = "CCCc1ccccc1NC(=O)Nc1ccc(N2CCN(C(=O)OC(C)(C)C)CC2)cc1"
attribute_measured = "melting point"
recorded_measurement = "177 to 181 °C"

[[record]]
test_smiles = "CC(C)(C)OC(=O)N1CCN(c2ccc(NC(=O)Nc3cc(Cl)ccc3[N+](=O)[O-])cc2)CC1"
attribute_measured = "melting point"
recorded_measurement = "205 °C"

[[record]]
test_smiles = "COc1cccc(NC(=O)Nc2ccc(N3CCN(C(=O)Nc4ccc(OCCO)cc4Cl)CC3)cc2)c1"
attribute_measured = "melting point"
recorded_measurement = "198 to 201 °C"

[[record]]
test_smiles = "COc1ccc(C)cc1NC(=O)Nc1ccc(C2CCN(C(=O)Nc3cc(OCCO)ccc3Cl)CC2)cc1"
attribute_measured = "melting point"
recorded_measurement = "202 to 205 °C"

[[record]]
test_smiles = "Cc1ccc(C)c(NC(=O)Nc2ccc(N3CCN(C(=O)OC(C)(C)C)CC3)cc2)c1"
attribute_measured = "melting point"
recorded_measurement = "219 to 220 °C"

[[record]]
test_smiles = "COc1ccc(Cl)cc1NC(=O)Nc1ccc(N2CCN(C(=O)Nc3ccccc3Cl)CC2)cc1"
attribute_measured = "melting point"
recorded_measurement = "231 to 233 °C"

[[record]]
test_smiles = "COc1ccc(F)cc1NC(=O)Nc1ccc(N2CCN(C(=O)Nc3ccc(OCCO)cc3C(F)(F)F)CC2)nc1"
attribute_measured = "melting point"
recorded_measurement = "172 to 173 °C"

[[record]]
test_smiles = "COc1ccc(Cl)cc1NC(=O)Nc1ccc(N2CCN(C(=O)Nc3c(C)cccc3OC)CC2)cc1"
attribute_measured = "melting point"
recorded_measurement = "165 to 167 °C"

[[record]]
test_smiles = "CC(C)(C)c1csc(NC(=O)Nc2ccc(N3CCN(C(=O)Nc4ccc(OCCO)cc4C(F)(F)F)CC3)cc2)n1"
attribute_measured = "melting point"
recorded_measurement = "130 to 132 °C"

[[record]]
test_smiles = "CCc1ccccc1NC(=O)Nc1ccc(N2CCN(C(=O)OC(C)(C)C)CC2)cc1"
attribute_measured = "melting point"
recorded_measurement = "162 °C"

[[record]]
test_smiles = "COc1ccc(Cl)cc1NC(=O)Nc1ccc(N2CCN(C(=O)Nc3ncccc3C)CC2)nc1"
attribute_measured = "melting point"
recorded_measurement = "203 to 205 °C"

